B1: MTMR15 (parent)
chain: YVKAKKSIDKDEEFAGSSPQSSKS

# Variants of: B1
# ASSAY_OVERVIEW: protein stability index of a GFP-peptide fusion (GPS, HEK-293T) (PSI 1-6); higher = more stable;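 also: lentivirally expressed fusions sorted by FACS into six bins by GFP to DsRed ratio, PSI derived from sequencing read proportions per bin multiplied by bin number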
# CONDITION_SET: c terminus: a fixed tail appended
Give protein stability index for every item shown.

Q: Endpoint output: protein stability index of A15S . Value?
Result: 2.92

Q: What would you report for G16I ?
Result: 2.86

Q: What would you report for Y1H ?
Result: 5.11

Q: What would you report for E12W ?
Result: 2.27

Q: What would you report for G16H ?
Result: 2.71

Q: What would you report for D9G ?
Result: 2.95

Q: What would you report for S18I ?
Result: 3.66

Q: What would you report for Y1V ?
Result: 5.29

Q: What would you report for Y1K ?
Result: 5.15

Q: What would you report for E13L ?
Result: 2.74

Q: What would you report for S7H ?
Result: 3.05

Q: What would you report for K23H ?
Result: 3.33

Q: What would you report for E12K ?
Result: 2.7

Q: What would you report for E13T ?
Result: 2.7

Q: What would you report for K23R ?
Result: 3.4

Q: What would you report for K5P ?
Result: 2.31

Q: What would you report for G16M ?
Result: 3.21

Q: What would you report for V2M ?
Result: 4.91

Q: What would you report for K10A ?
Result: 3.63

Q: What would you report for S7F ?
Result: 3.06

Q: What would you report for G16W ?
Result: 3.45

Q: What would you report for D9K ?
Result: 2.45

Q: What would you report for E13A ?
Result: 2.65

Q: What would you report for K6L ?
Result: 2.55

Q: What would you report for S21V ?
Result: 1.22

Q: What would you report for S22V ?
Result: 3.36

Q: What would you report for P19W ?
Result: 2.42

Q: What would you report for S18L ?
Result: 2.85

Q: What would you report for A4I ?
Result: 3.24

Q: What would you report for E13G ?
Result: 2.82

Q: What would you report for K23D ?
Result: 3.11

Q: What would you report for F14A ?
Result: 3.25

Q: What would you report for E12T ?
Result: 3.21

Q: What would you report for D9H ?
Result: 3.27

Q: What would you report for S24R ?
Result: 2.37

Q: What would you report for D9I ?
Result: 2.73

Q: What would you report for F14N ?
Result: 3.49

Q: What would you report for K3Q ?
Result: 3.31

Q: What would you report for E12V ?
Result: 2.3

Q: What would you report for K10L ?
Result: 3.05

Q: What would you report for D9N ?
Result: 2.61

Q: What would you report for K5E ?
Result: 4.21

Q: What would you report for V2W ?
Result: 4.5

Q: What would you report for K10V ?
Result: 3.24

Q: What would you report for E13D ?
Result: 3.49

Q: What would you report for S22Q ?
Result: 2.6

Q: What would you report for K5V ?
Result: 3.47

Q: What would you report for F14C ?
Result: 3.43

Q: What would you report for S7L ?
Result: 2.85

Q: What would you report for S18P ?
Result: 3.04

Q: What would you report for K10Y ?
Result: 2.72

Q: What would you report for G16V ?
Result: 2.42

Q: What would you report for E12C ?
Result: 2.59

Q: What would you report for Q20W ?
Result: 3.13

Q: What would you report for S21E ?
Result: 3.3

Q: What would you report for A4F ?
Result: 2.89

Q: What would you report for G16T ?
Result: 2.85

Q: What would you report for F14L ?
Result: 3.27

Q: What would you report for Y1Q ?
Result: 5.48

Q: What would you report for V2T ?
Result: 5.08

Q: What would you report for D11I ?
Result: 2.57

Q: What would you report for P19R ?
Result: 2.45

Q: What would you report for S21H ?
Result: 3.24

Q: What would you report for F14D ?
Result: 3.45

Q: What would you report for E12R ?
Result: 2.6

Q: What would you report for S7A ?
Result: 3.15

Q: What would you report for G16A ?
Result: 3.07

Q: What would you report for I8V ?
Result: 2.97

Q: What would you report for S7I ?
Result: 3.01

Q: What would you report for K5N ?
Result: 3.62

Q: What would you report for K23E ?
Result: 3.55

Q: What would you report for E12D ?
Result: 2.69

Q: What would you report for D9V ?
Result: 2.77

Q: What would you report for K3S ?
Result: 2.76

Q: What would you report for K3G ?
Result: 2.27

Q: What would you report for S18Y ?
Result: 2.86

Q: What would you report for K5H ?
Result: 2.8

Q: What would you report for E13R ?
Result: 2.77

Q: What would you report for Q20K ?
Result: 3.24

Q: What would you report for D9L ?
Result: 2.76

Q: What would you report for K23G ?
Result: 3.06

Q: What would you report for K23F ?
Result: 3.02

Q: What would you report for S7K ?
Result: 3.38

Q: What would you report for E13M ?
Result: 2.39

Q: What would you report for K6D ?
Result: 3.87

Q: What would you report for K23Y ?
Result: 2.76

Q: What would you report for K3C ?
Result: 3.3

Q: What would you report for D9E ?
Result: 2.9

Q: What would you report for Y1T ?
Result: 5.69

Q: What would you report for K3M ?
Result: 3.28

Q: What would you report for K3P ?
Result: 2.04
